B1: Caulobacter ParB omega fusion; a variant is named by its letters at X, in order, B8GW30 (parent)
chain: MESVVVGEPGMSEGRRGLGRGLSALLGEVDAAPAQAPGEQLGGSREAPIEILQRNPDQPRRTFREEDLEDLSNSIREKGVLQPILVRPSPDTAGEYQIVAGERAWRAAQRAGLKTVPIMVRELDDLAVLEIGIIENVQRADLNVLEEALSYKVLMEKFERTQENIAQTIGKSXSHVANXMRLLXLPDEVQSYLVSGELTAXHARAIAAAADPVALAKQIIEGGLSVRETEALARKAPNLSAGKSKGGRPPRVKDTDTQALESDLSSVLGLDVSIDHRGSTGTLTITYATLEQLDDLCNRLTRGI

Variants of: B1
Test: one-hybrid fitness for binding parS DNA (scaled: cognate 1, non-cognate 0); higher = stronger binding
Settings: with parS DNA site
Whole data set: some 81,000 sequences, median “one-hybrid fitness for binding parS DNA” near -0.17, cut for the highest 2% near 0.51. The entries come from a sample that favours the highest values as a whole.
propertyName: one-hybrid fitness for binding parS DNA

> print(dat)
    mutationcode  measvalue
 1          RKGF      ≤ 0.2
 2          KCCV      ≤ 0.2
 3          RSGH      0.208
 4          DVDG      ≤ 0.2
 5          CRIG      ≤ 0.2
 6          RMHF      0.269
 7          VASF      ≤ 0.2
 8          VPYR      ≤ 0.2
 9          LHQT      ≤ 0.2
10          QFYR      ≤ 0.2
11          PTYG      ≤ 0.2
12          RMHM      0.374
13          RSGC      0.956
14          RMGM      0.315
15          RMDH      ≤ 0.2
16          RSGP      ≤ 0.2
17          FLPQ      ≤ 0.2

Origin of values: a collection of fitness landscapes (doi:10.1016/j.celrep.2020.107928)
